target: 11b-HSD1 (Mus musculus, UniProt P50172); construct: Fibroblasts were differentiated into adipocytes; endogenous in cells; assay: Cellular assay, 11b-HSD1 activity in differentiated 3T3-L1 cells; conditions: 4 hour pre-incubation, read-out: [C2] HSD1 cellular 3T3-L1 Score
Sequence (P50172 whole entry): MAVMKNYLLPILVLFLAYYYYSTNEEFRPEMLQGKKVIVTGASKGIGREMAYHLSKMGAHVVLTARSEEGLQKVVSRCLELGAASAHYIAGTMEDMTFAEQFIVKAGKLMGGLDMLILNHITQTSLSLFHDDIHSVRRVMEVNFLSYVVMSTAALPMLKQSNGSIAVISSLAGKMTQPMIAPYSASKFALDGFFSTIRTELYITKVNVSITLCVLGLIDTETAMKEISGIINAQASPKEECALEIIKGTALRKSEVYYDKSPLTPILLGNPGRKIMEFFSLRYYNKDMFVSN
READOUT_NAME: IC50

Record excerpt, results attached:
* C[C@H](C[C@@H]1CCN([C@@H](C)c2ccccc2)C1=O)c1ccccc1 | 1000 to 10000 nM
* O=C1C(Cc2ccc(F)cc2Cl)CCN1CCCc1ccccc1 (stereo not drawn) | 1000 to 10000 nM
* C[C@@H](c1ccccc1)N1CC[C@H](Cc2cc3c(cc2Cl)OCO3)C1=O | < 1000 nM
* COc1cccc(C[C@@H]2CCN([C@@H](C)c3ccccc3)C2=O)c1 | > 10000 nM
* COc1cccc(C[C@H]2CCN([C@H](C)c3ccccc3)C2=O)c1 | 1000 to 10000 nM
* Cc1ccccc1C[C@]1(C)CCN([C@@H](C)c2ccccc2)C1=O | 1000 to 10000 nM

11b-HSD1 (Mus musculus, UniProt P50172) / IC50 / C[C@H](c1ccccc1)[C@H]1CCN([C@@H](C)c2ccccc2)C1=O : value?
< 1000 nM

Similarly, COc1ccc(C[C@@H]2CCN([C@@H](C)c3ccccc3)C2=O)cc1 ?
1000 to 10000 nM

Similarly, Cc1cccc(C)c1CC1CCN(CCCc2ccccc2)C1=O (stereo not drawn) ?
1000 to 10000 nM

---

Parameter: pIC50. Scope: all listed entries.
molecular target: 11b-HSD1 (Homo sapiens, UniProt P28845); experiment: Enzymatic assay, 11b-HSD1 dependent conversion of cortisone into cortisol (reductase activity); settings: recombinant protein, 2 μM cortisone, 45 min at 37 C; read-out: [C1] HSD1-prot Reduct Score
Sequence (P28845 whole entry): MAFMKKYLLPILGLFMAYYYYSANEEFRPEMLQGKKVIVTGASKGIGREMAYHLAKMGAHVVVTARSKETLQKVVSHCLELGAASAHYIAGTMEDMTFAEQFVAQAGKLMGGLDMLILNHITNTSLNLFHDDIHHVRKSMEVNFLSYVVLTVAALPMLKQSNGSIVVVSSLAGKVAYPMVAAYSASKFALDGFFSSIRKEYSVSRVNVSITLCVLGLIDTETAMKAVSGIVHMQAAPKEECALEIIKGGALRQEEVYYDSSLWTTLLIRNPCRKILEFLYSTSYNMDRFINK
pIC50: −log10 of the molar value.

* Cc1cccc(C[C@@H]2CCN([C@H](C)c3ccccc3)C2=O)c1 | < 5.00

Item C[C@H](C[C@H]1CCN([C@@H](C)c2ccccc2)C1=O)c1ccccc1 has what recorded pIC50?
> 6.00

Similarly, COc1ccc(C[C@@H]2CCN([C@H](C)c3ccccc3)C2=O)cc1 ?
< 5.00

Similarly, O=C1C(Cc2c(Cl)cccc2Cl)CCN1CCc1ccc(Br)cc1 (centres unmarked) ?
> 6.00

Similarly, CC[C@@H](C[C@@H]1CCN([C@@H](C)c2ccccc2)C1=O)c1ccccc1 ?
> 6.00

Similarly, COc1cccc(C[C@@H]2CCN([C@@H](C)c3ccccc3)C2=O)c1 ?
< 5.00

Similarly, C[C@@H](c1ccccc1)N1CC[C@@H](Cc2c(Cl)cccc2Cl)C1=O ?
> 6.00

Similarly, C[C@@H](C[C@H]1CCN([C@@H](C)c2ccccc2)C1=O)c1ccccc1 ?
< 5.00

Similarly, COc1ccc(CC[C@@H]2CCN([C@@H](C)c3ccccc3)C2=O)cc1 ?
5.00 to 6.00

Similarly, C[C@@H](c1ccccc1)N1CC[C@H](CCc2c(F)cccc2Cl)C1=O ?
5.00 to 6.00

Similarly, C[C@@H](c1ccccc1)N1CC[C@H](Cc2cccc(Cl)c2Cl)C1=O ?
> 6.00

Similarly, C[C@H](c1ccccc1)N1CC[C@@H](Cc2ccccc2C#N)C1=O ?
5.00 to 6.00

Similarly, COc1ccccc1C[C@@H]1CCN([C@H](C)c2ccccc2)C1=O ?
< 5.00

Similarly, C[C@@H](c1ccccc1)N1CC[C@H](Cc2c(F)cccc2F)C1=O ?
> 6.00

Similarly, CC[C@@H](c1ccccc1)N1CC[C@H](Cc2c(Cl)cccc2Cl)C1=O ?
< 5.00

Similarly, Cc1ccc(C[C@H]2CCN([C@@H](C)c3ccccc3)C2=O)cc1 ?
< 5.00

Similarly, C[C@@H](c1ccccc1)N1CC[C@@H](Cc2cccc(Cl)c2)C1=O ?
5.00 to 6.00

Similarly, C[C@@H](c1ccccc1)N1CC[C@@H](Cc2c(F)cccc2F)C1=O ?
< 5.00

Similarly, COc1ccc(C[C@H]2CCN([C@@H](C)c3ccccc3)C2=O)cc1 ?
5.00 to 6.00

Similarly, C[C@H](c1ccccc1)[C@H]1CCN([C@@H](C)c2ccccc2)C1=O ?
> 6.00

---

molecular target: 11b-HSD1 (Mus musculus); construct: Fibroblasts were differentiated into adipocytes; endogenous in cells; test: Cellular assay, 11b-HSD1 activity in differentiated 3T3-L1 cells; details: 4 hour pre-incubation, read-out: [C2] HSD1 cellular 3T3-L1 Score
Parameter: IC50. Scope: all listed entries.

Record excerpt, results attached:
* Cc1cccc(C)c1CC1CCN(CCc2ccccc2)C1=O (stereo not drawn) | > 10 µM
* CC[C@H](C[C@@H]1CCN([C@@H](C)c2ccccc2)C1=O)c1ccccc1 | 1 to 10 µM
* Cc1cccc(C)c1C[C@@H]1CCN([C@@H](C)c2ccccc2)C1=O | < 1 µM
* CC[C@]1(Cc2ccccc2C)CCN([C@H](C)c2ccccc2)C1=O | > 10 µM
* Cc1ccc([C@@H](O)[C@H]2CCN([C@@H](C)c3ccccc3)C2=O)c(C)c1 | 1 to 10 µM
* O=C1C(Cc2ccc(F)cc2F)CCN1CCc1ccccc1 (stereo not drawn) | 1 to 10 µM
* C[C@@H](c1ccccc1)N1CC[C@H](Cc2ccc(F)cc2Cl)C1=O | < 1 µM
* O=C1[C@@H](Cc2c(Cl)cccc2Cl)CCN1[C@@H](CO)c1ccccc1 | > 10 µM

With those in mind, consider the next molecule.
Item C[C@H](c1ccccc1)N1CCC(C)(c2ccccc2)C1=O (stereo partly drawn) has what recorded IC50?
> 10 µM

---

Molecular target: 11b-HSD2 (Homo sapiens, UniProt P80365)
Sequence (P80365 1-405): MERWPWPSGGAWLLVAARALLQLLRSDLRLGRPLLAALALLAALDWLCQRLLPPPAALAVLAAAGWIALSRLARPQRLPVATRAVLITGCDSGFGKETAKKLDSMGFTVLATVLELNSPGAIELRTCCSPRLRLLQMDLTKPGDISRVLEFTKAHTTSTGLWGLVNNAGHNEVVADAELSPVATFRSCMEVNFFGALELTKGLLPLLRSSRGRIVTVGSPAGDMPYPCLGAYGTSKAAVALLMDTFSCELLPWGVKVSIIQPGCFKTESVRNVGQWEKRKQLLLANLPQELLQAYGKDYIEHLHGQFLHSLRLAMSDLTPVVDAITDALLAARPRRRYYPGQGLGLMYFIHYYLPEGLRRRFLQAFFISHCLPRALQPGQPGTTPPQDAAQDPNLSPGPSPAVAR
Assay: Enzymatic assay, 11b-HSD2 dependent dehydrogenase activity
Assay type: biochemical
Conditions: recombinant protein, 100 nM cortisol, 45 min at 37 C; read-out: [C1] HSD2 prot Dehydro Score
pIC50: −log10 of the molar value.
READOUT_NAME: pIC50

• Cc1ccccc1CC1CCN(CCc2ccccc2)C1=O (stereo not drawn) = < 5.00
• Cc1ccc(C[C@@H]2CCN([C@H](C)c3ccccc3)C2=O)cc1 = < 5.00
• C[C@@H](c1ccccc1)N1CC[C@@H](Cc2c(Cl)cccc2Cl)C1=O = < 5.00
• Cc1ccccc1C(C)[C@H]1CCN([C@@H](C)c2ccccc2)C1=O (stereo partly drawn) = 5.00 to 6.00
• C[C@H](c1ccccc1)N1CC[C@H](Cc2ccccc2Cl)C1=O = < 5.00

Item O=C1C(Cc2ccccc2Cl)CCN1CCc1ccccc1 (stereo not drawn) has what recorded pIC50?
< 5.00

Similarly, C[C@@H](c1ccccc1)N1CC[C@H](Cc2ccccc2Cl)C1=O ?
< 5.00

Similarly, Cc1ccc(CC2CCN(CCc3ccccc3)C2=O)cc1 (stereo not drawn) ?
< 5.00

Similarly, O=C1C(Cc2cccc(Cl)c2Cl)CCN1CCc1ccccc1 (stereo not drawn) ?
< 5.00

Similarly, COc1ccccc1C[C@H]1CCN([C@@H](C)c2ccccc2)C1=O ?
< 5.00

Similarly, O=C1C(Cc2ccccc2Cl)CCN1Cc1ccccc1 (stereo not drawn) ?
< 5.00

Similarly, C[C@@H](c1ccccc1)N1CC[C@@H](Cc2ccccc2Cl)C1=O ?
< 5.00

Similarly, COc1ccc(C[C@H]2CCN([C@H](C)c3ccccc3)C2=O)cc1 ?
< 5.00

Similarly, Cc1ccccc1C[C@@H]1CCN([C@@H](C)c2ccccc2)C1=O ?
< 5.00

Similarly, Cc1ccccc1C(C)[C@@H]1CCN([C@@H](C)c2ccccc2)C1=O (stereo partly drawn) ?
5.00 to 6.00

Similarly, O=C1C(Cc2c(Cl)cccc2Cl)CCN1Cc1ccccc1 (stereo not drawn) ?
< 5.00

Similarly, COc1ccc(C[C@@H]2CCN([C@@H](C)c3ccccc3)C2=O)c(Cl)c1OC ?
5.00 to 6.00

Similarly, O=C1C(Cc2c(Cl)cccc2Cl)CCN1CCc1ccccc1 (stereo not drawn) ?
< 5.00

Similarly, C[C@@H](c1ccccc1)N1CC[C@H](Cc2c(Cl)cccc2Cl)C1=O ?
< 5.00

Similarly, C[C@H](c1ccccc1)N1CC[C@H](Cc2c(Cl)cccc2Cl)C1=O ?
< 5.00

Similarly, CC[C@H](c1ccccc1)N1CC[C@@H](Cc2c(Cl)cccc2Cl)C1=O ?
5.00 to 6.00
